biological target: DNA (cytosine-5)-methyltransferase 1 (Homo sapiens, UniProt P26358)
Sequence (P26358 whole entry): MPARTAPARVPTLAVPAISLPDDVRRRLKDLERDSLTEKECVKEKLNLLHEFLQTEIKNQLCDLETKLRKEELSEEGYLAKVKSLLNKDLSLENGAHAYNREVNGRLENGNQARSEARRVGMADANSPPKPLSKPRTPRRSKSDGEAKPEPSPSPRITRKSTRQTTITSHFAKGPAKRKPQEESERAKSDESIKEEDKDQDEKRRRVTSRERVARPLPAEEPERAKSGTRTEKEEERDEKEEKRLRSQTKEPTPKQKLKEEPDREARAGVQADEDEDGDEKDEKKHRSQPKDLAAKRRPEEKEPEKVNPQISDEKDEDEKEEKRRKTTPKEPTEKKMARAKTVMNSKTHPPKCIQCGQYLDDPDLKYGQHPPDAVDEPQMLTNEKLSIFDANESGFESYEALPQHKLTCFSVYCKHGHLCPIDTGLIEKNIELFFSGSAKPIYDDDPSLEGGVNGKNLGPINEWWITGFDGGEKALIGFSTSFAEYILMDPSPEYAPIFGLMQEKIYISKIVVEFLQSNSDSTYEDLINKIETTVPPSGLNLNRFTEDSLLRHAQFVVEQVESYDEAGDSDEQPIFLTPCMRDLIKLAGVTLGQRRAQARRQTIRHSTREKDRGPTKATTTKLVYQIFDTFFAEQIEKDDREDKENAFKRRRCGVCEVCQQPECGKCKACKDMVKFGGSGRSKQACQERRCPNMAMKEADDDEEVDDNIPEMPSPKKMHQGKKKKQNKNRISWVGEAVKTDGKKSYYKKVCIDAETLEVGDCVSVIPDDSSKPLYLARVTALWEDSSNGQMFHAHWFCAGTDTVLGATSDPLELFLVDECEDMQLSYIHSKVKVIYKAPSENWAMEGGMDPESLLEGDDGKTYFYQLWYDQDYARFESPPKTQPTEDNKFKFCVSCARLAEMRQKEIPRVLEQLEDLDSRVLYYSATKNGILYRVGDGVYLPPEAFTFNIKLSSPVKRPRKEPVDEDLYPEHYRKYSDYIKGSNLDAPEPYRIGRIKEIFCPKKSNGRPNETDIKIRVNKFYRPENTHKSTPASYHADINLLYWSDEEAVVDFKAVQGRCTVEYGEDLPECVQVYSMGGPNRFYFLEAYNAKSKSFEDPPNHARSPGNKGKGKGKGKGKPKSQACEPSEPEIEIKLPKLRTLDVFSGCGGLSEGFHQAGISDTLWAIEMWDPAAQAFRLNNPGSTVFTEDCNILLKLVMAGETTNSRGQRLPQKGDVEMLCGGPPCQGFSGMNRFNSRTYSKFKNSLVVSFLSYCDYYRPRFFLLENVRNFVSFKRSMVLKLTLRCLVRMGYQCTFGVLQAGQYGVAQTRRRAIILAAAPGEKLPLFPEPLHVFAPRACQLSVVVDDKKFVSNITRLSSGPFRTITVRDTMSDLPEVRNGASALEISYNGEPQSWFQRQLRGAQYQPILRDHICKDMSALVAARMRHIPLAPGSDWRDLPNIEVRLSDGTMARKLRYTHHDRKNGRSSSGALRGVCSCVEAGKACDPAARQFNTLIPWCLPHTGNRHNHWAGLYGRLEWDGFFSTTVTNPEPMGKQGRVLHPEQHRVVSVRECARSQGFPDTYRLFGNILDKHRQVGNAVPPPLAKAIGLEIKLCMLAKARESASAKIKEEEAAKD
quantity: IC50 (µM)

>>> recorded_number("CCc1c(C#N)c(SC(C(N)=O)c2ccccc2)nc(N(C)CC(=O)NC)c1C#N (stereo unspecified)")
0.43

---

tested on: HCT-116; experiment: Induction of molecular glue effect mediated DNMT1 degradation in human HCT-116 cells assessed as reduction in DNMT1 protein level by measuring maximal efficacy at 1 uM incubated for 24 hrs by Western blot analysis relative to control; assay type: cell-based
Listed compounds paired with reported Emax
quantity: Emax (%)

>>> recorded_number("CCc1c(C#N)c(SC(C(N)=O)c2ccccc2)nc(N2CCN(C(=O)c3cc4ccccc4s3)CC2)c1C#N (centres undefined)")
74
>>> recorded_number("CCc1c(C#N)c(SC(C(N)=O)c2ccccc2)nc(N2CCS(=O)(=O)CC2)c1C#N (centres undefined)")
74
>>> recorded_number("CCc1c(C#N)c(SC(C(N)=O)c2ccccc2)nc(N2CCNCC2)c1C#N (centres undefined)")
78
>>> recorded_number("CCc1c(C#N)c(SC(C(N)=O)c2ccccc2)nc(N2CCN(C(=O)c3cc[nH]n3)CC2)c1C#N (centres undefined)")
89
>>> recorded_number("CCc1c(C#N)c(SC(C(N)=O)c2ccccc2)nc(N2CCN(C(=O)C34CC5CC(CC(C5)C3)C4)CC2)c1C#N (centres undefined)")
80
>>> recorded_number("CCc1c(C#N)c(SC(C(N)=O)c2ccccc2)nc(N(C)CCNC(C)=O)c1C#N (centres undefined)")
56
>>> recorded_number("CCc1c(C#N)c(SC(C(N)=O)c2ccccc2)nc(N2CCC(N)C2)c1C#N (centres undefined)")
87
>>> recorded_number("CCC(=O)N1CCN(c2nc(SC(C(N)=O)c3ccccc3)c(C#N)c(CC)c2C#N)CC1 (centres undefined)")
89
>>> recorded_number("CCc1c(C#N)c(S[C@@H](C(N)=O)c2ccccc2)nc(N(C)C)c1C#N")
89
>>> recorded_number("CCc1c(C#N)c(SC(C(N)=O)c2ccccc2)nc(N2CCN(C(=O)C(C)(C)C)CC2)c1C#N (centres undefined)")
88
>>> recorded_number("CCc1c(C#N)c(SC(C(N)=O)c2ccccc2)nc(N2CCC(N(C)C)CC2)c1C#N (centres undefined)")
92
>>> recorded_number("CCc1c(C#N)c(SC(C(N)=O)c2ccccc2)nc(N2CCN(C(=O)CC(C)C)CC2)c1C#N (centres undefined)")
93
>>> recorded_number("CCc1c(C#N)c(SC(C(N)=O)c2ccccc2)nc(N2CCN(C(=O)c3ccco3)CC2)c1C#N (centres undefined)")
94
>>> recorded_number("CCc1c(C#N)c(SC(C(N)=O)c2ccccc2)nc(N2CCN(C)C(=O)C2)c1C#N (centres undefined)")
87
>>> recorded_number("CCc1c(C#N)c(NCC(N)=O)nc(SC(C(N)=O)c2ccccc2)c1C#N (centres undefined)")
32
>>> recorded_number("CCc1c(C#N)c(SC(C(N)=O)c2ccccc2)nc(N2CCC(NC(C)=O)CC2)c1C#N (centres undefined)")
13
>>> recorded_number("CCc1c(C#N)c(SC(C(N)=O)c2ccccc2)nc(N2CCN(C(=O)C3CCCCCC3)CC2)c1C#N (centres undefined)")
87
>>> recorded_number("CCc1c(C#N)c(SC(C(=O)NC)c2ccccc2)nc(N2CCC(N)CC2)c1C#N (centres undefined)")
82
>>> recorded_number("CCc1c(C#N)c(SC(C(N)=O)c2ccccc2)nc(N2CCN(C(=O)c3nccs3)CC2)c1C#N (centres undefined)")
90

All values here come from ChEMBL document CHEMBL6121066.
